Sourced from paper PMC12401554

tested on: 2D HepaRG cells; assay: CometChip assay; assay type: cell-based, human; details: 24-h exposure, at the maximum concentration shown in the table
Below: a set of entries, each annotated with reported Fold increase of DNA damage over the vehicle control.
Reply with just the number (in fold).

> print(dat)
          line.notation  assay.value
1            CCN(CC)N=O          2.3
2        CCCCN(CCCC)N=O          2.4
3  O=NN1CCN(C2CCCC2)CC1          0.9

Looking for the measured Fold increase of DNA damage over the vehicle control of `CC(C)N(N=O)C(C)C` , can you help? 1.1

Need Fold increase of DNA damage over the vehicle control of `CN(CCCC(=O)O)N=O` , thanks. 1.0

Entry `CCN(N=O)C(C)C` : reported Fold increase of DNA damage over the vehicle control = ? 1.5

---

system: 2D HepaRG cells; assay: HT flow-cytometry-based MN assay in 2D HepaRG cells; type: cell-based, human; settings: at the maximum concentration shown in the table
assay_metric: Fold increase of MN formation over the vehicle control (fold)
Only the number, expressed in fold, is required.

> print(dat)
          line.notation  assay.value
1            CCN(CC)N=O          1.7
2        CCCCN(CCCC)N=O          1.5
3  O=NN1CCN(C2CCCC2)CC1          1.4
4         CCN(N=O)C(C)C          1.1
5      CC(C)N(N=O)C(C)C          1.1

Now let's try a different one.
Recorded Fold increase of MN formation over the vehicle control of `CN(CCCC(=O)O)N=O` , please. 1.4

---

tested on: 2D HepaRG cells; assay: CometChip assay; assay type: cell-based, human; conditions: 24-h exposure
assay_metric: Outcome, CometChip assay

> print(dat)
    line.notation              assay.metric          assay.value
1  CCCCN(CCCC)N=O  Outcome, CometChip assay  + + (2 ≤ ratio < 5)
2        CN(C)N=O  Outcome, CometChip assay  + + (2 ≤ ratio < 5)
3      CCN(CC)N=O  Outcome, CometChip assay  + + (2 ≤ ratio < 5)

---

test system: 2D HepaRG cells; test: HT flow-cytometry-based MN assay in 2D HepaRG cells; type: cell-based, human
assay_metric: Outcome, MN assay

> print(dat)
    line.notation  target.or.test.system       assay.metric          assay.value
1  CCCCN(CCCC)N=O        2D HepaRG cells  Outcome, MN assay  + (1.5 ≤ ratio < 2)
2      CCN(CC)N=O        2D HepaRG cells  Outcome, MN assay  + (1.5 ≤ ratio < 2)

---

test system: 3D HepaRG spheroids; test: HT flow-cytometry-based MN assay in 3D HepaRG spheroids; format: cell-based, human; details: at the maximum concentration shown in the table
assay_metric: Fold increase of MN formation over the vehicle control (fold)
Write down the numeric answer in fold and omit the unit.

> print(dat)
                                   compound  assay.value
1  CCN(N=O)C(C)C [NEIPA, N-nitrosoethylisopropylamine]          1.3
2  CC(C)N(N=O)C(C)C [NDIPA, N-nitrosodiisopropylamine]          1.2
3  CN(CCCC(=O)O)N=O [NMBA, N-nitroso-N-methyl-4-aminobutyric acid]          1.8

Identify the measured Fold increase of MN formation over the vehicle control of CCCCN(CCCC)N=O [NDBA, N-nitrosodibutylamine] for 3D HepaRG spheroids. 2.3

Find the measured Fold increase of MN formation over the vehicle control: item O=NN1CCN(C2CCCC2)CC1 [CPNP, N-cyclopentyl-4-nitrosopiperazine] , target or system 3D HepaRG spheroids. 1.4

Fill in the recorded Fold increase of MN formation over the vehicle control for this compound, with 3D HepaRG spheroids as test system: CCN(CC)N=O [NDEA, N-nitrosodiethylamine] 2.2
